- System: NCI-H1975
- test name: Antiproliferative activity against human NCI-H1975 cells after 72 hrs by MTT assay
- Type: functional, cell-based
- details: NCI-H1975, 72 h
// values below are reported IC50

Use these answered entries as a reference point.
>>> result("C=CCc1ccc(O)c(-c2ccc(O)c(CC(O)COC)c2)c1 (centres undefined)")
"> 40 µM"
>>> result("O=Cc1ccc(O)c(-c2ccc(O)c(CC3CO3)c2)c1 (centres undefined)")
"> 40 µM"

Field IC50 (entry C=CCc1ccc(O)c(-c2ccc(O)c(CC(CO)OC)c2)c1 (centres undefined) ) reads > 40 µM

Field IC50 (entry C=CCc1ccc(O)c(-c2ccc(O)c(/C=C\C)c2)c1 ) reads 39.8 µM

Where do these numbers come from? They come from ChEMBL document CHEMBL4346736.
